Ref: paper PMC5800941

# TARGET OR TEST SYSTEM: CYP3A4 in POPC Nanodiscs (Homo sapiens, UniProt P08684, S18F)
# ASSAY EXPLANATION: Substrate binding to CYP3A4 in Nanodiscs: UV-Vis spectral titration
QUANTITY MEASURED: Kd (nM)

# CPD SMILES, READING
rows = [
    ("CC(C)c1c(C(=O)Nc2ccccc2)c(-c2ccccc2)c(-c2ccc(F)cc2)n1CC[C@@H]1C[C@@H](O)CC(=O)O1", 1000),
]

###

Here, each record is paired with measured pKd data.
# TARGET OR TEST SYSTEM: CYP3A4 (Homo sapiens, UniProt P08684, S18F)
# ASSAY EXPLANATION: Substrate binding to CYP3A4 in Nanodiscs: UV-Vis spectral titration
# RUN PARAMETERS: human, recombinant CYP3A4 in POPC Nanodiscs
pKd: −log10 of the molar value.

# COMPOUND, pKd
rows = [
    ("CC(C)c1c(C(=O)Nc2ccccc2)c(-c2ccccc2)c(-c2ccc(F)cc2)n1CC[C@@H]1C[C@@H](O)CC(=O)O1 [ARVL, atorvastatin lactone]", 4.66),
    ("CCCCc1oc2ccc(NS(C)(=O)=O)cc2c1C(=O)c1ccc(OCCCN(CCCC)CCCC)cc1 [DND, dronedarone]", 5.44),
]
